Consider the following compounds and their measured inhibition readings.
experiment: inhibitors of the yeast RAM network, pilot screen, dse1pr::URA3 reporter, 5-FOA selection (AID 869);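 also: 0% = DMSO wells with no growth and 100% = 10 µM 1-NA-PP1 with full growth; RAM network block rescues cells from 5-FOA so hits raise OD615 growth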; conditions: S. cerevisiae dse1pr::URA3 5-FOA growth, OD615, 2 d; at 10 µM; active compounds read high; strain carries analog-sensitive mutant Cbk1 kinase
Output spec: scalar in %, unitless text.

Some entries whose results are on file:
Lab note: measured inhibition of Cc1ccc(C)c2[nH]c(=O)c(CCNC(=O)C(C)C)cc12 was 1.83

Value of inhibition reported for the compound CC(=O)c1c(C)[nH]c(C(=O)Nc2cc(C)ccc2C)c1C is 2.14

Per the records, this compound ( Cc1ccc(-n2nnc3c(=O)n(Cc4ccccc4C)cnc32)cc1 ) has inhibition equal to 2.44

The reported inhibition of the compound CCCc1cc(C(=O)NCc2ccc(OC)cc2)no1 was 1.78

The recorded inhibition for COc1ccccc1NC(=O)Nc1ccc(Br)cn1 is 2.98

Record summary for Cc1ccc(C(=O)NCCn2cc(SCC(=O)Nc3nnc(C)s3)c3ccccc32)cc1 : reported inhibition = 1.07

Entry O=S(=O)(NCC(c1cccnc1)N1CCN(c2ccc(F)cc2)CC1)c1ccc(F)cc1 (stereo unspecified) — recorded inhibition = 4.02

Notebook: O=C(OCC(F)(F)C(F)F)c1ccccc1C(=O)Oc1ccc(F)cc1F , inhibition read as 1.86

Please fill in: inhibition reported for Cc1ccccc1-n1c(SC/C(O)=C(\C#N)c2nc3ccccc3[nH]2)nnc1-c1ccncc1 = 2.92

Notebook: CC(C)c1ccc(N(CC(=O)O)S(=O)(=O)c2cccnc2)cc1 , inhibition read as -0.135

Below: the item to evaluate.
inhibition in this record for CCSc1nnc(Cn2c(=O)sc3ccccc32)n1-c1ccccc1C : 1.61

---

assay: OD615 S. cerevisiae growth inhibition, permissive medium, pilot counter-assay, permissive growth control for S. cerevisiae lifespan shortening project (AID 705); settings: OD615, 24 h, at 10 µM, active compounds read high
Active and inactive are the calls of the source.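 How the source made its calls: active means growth inhibition above 25% in both replicates, a cutoff set 3 SD above the mean; inconclusive means above 25% in only one replicate; inactive means the rest.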
property: growth inhibition

Example entries begin here.
The compound identified as COc1cccc(C2C(C(=O)OCc3ccccc3)=C(C)Nc3ncnn32)c1OC (stereo unspecified) registered its growth inhibition at -8.96% (inactive)

The compound listed as COc1cc(SC)ccc1C(=O)Nc1ccc2c(c1)CCN2S(C)(=O)=O shows growth inhibition equal to -4.62% (inactive)

// growth inhibition lookup, compound = COc1ccc2c(c1)NC1(O)c3ccccc3C(=O)C21O (stereo unspecified) , result: -5.39% (inactive)

Record Nc1nnc(CCc2ccccc2)s1 , field growth inhibition: -1.91% (inactive)

The compound listed as CCC(=O)Nc1c(OC(=O)CC)ccc2c(C)cc(=O)oc12 shows growth inhibition equal to 5.45% (inactive)

---
growth inhibition reported for this compound COc1ccc(OC)c(NC2c3ccccc3C(=O)N2Cc2ccc3c(c2)OCO3)c1 (stereo unspecified) : -0.33% (inactive)

growth inhibition in this record for CCCCOC(=O)c1ccc(NC(=O)CSCc2n[nH]c(=O)[nH]2)cc1 : -1.44% (inactive)

The compound listed as O=C(CCN1C(=O)c2ccccc2C1=O)OCn1nnc2ccccc2c1=O has a reported growth inhibition of -14.7% (inactive)

# growth inhibition (compound: O=C(NCCO)c1ccc(-c2nnc(N3CCOCC3)c3ccccc23)cc1 ) is -8.54% (inactive)

Given item CC(=O)C1=C(O)C(=O)N(CC(=O)O)C1c1ccccc1Cl (stereo unspecified) , the value recorded as its growth inhibition is 0.915% (inactive)

Sure, the documented growth inhibition for CCOC(=O)c1ccc(Nc2cc(C)nc3nc(C)nn23)cc1 is -5.61% (inactive)
